remaining activity at 2 µg/mL values for the compounds below.
- target: GST-p53 DNA binding domain (aa 92-aa 312) (Homo sapiens, UniProt P04637)
- Sequence (P04637 92-312): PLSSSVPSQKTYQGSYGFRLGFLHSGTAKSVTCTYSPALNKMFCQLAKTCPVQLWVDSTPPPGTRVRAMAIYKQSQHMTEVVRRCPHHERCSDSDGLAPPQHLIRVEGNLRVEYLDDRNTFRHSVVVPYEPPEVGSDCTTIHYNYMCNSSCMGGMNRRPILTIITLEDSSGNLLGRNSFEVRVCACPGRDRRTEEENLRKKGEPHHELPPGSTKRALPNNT
- methodDescription: Scintillation Proximity Assay (SPA), displacement of 3H STANDARD COMPOUND
- assayContext: 1 h, 2 ug/mL of drug; letter rating; number in brackets = number of determinations averaged; read-out: SPA ASSAY % Residual T @ 2 ug/mL of drug (Average of)
propertyMeasured: remaining activity at 2 µg/mL

- structureAsSmiles: "CN(C)CCCNc1nc(CN(C)Cc2ccccc2C(=O)O)nc2ccccc12"
  propertyMeasured: "remaining activity at 2 µg/mL"
  testValue: "≥ 80%"
- structureAsSmiles: "CN(C)CCCNc1nc(CN(C)CC2CCCCC2)nc2ccccc12"
  propertyMeasured: "remaining activity at 2 µg/mL"
  testValue: "40 to 80%"
- structureAsSmiles: "CN(C)CCCNc1nc(CN(C)Cc2nccs2)nc2ccccc12"
  propertyMeasured: "remaining activity at 2 µg/mL"
  testValue: "20 to 40%"
- structureAsSmiles: "CN(C)CCCNc1nc(CN(C)Cc2cc(Cl)ccc2Cl)nc2ccccc12"
  propertyMeasured: "remaining activity at 2 µg/mL"
  testValue: "40 to 80%"
- structureAsSmiles: "CN(C)CCCNc1nc(CN(C)Cc2ccc3ccccc3c2)nc2ccccc12"
  propertyMeasured: "remaining activity at 2 µg/mL"
  testValue: "40 to 80%"
